molecular target: MAPK13 (Homo sapiens (Human)); details: read-out: MAPK13 inhibition
Sequence (O15264 whole entry): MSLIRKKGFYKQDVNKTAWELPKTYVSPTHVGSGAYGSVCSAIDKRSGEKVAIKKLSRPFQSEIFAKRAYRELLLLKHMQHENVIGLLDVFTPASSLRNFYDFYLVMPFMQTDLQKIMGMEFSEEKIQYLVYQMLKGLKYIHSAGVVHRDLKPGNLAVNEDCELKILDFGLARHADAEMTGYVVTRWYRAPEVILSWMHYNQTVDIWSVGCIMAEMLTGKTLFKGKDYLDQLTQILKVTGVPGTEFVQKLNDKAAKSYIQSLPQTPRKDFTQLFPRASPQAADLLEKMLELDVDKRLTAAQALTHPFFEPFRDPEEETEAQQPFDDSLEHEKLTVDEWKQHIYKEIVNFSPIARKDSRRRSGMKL
pIC50: −log10 of the molar value.
Documented pIC50 across a set of compounds
Property name: pIC50

CC(C)(C)c1cc(NC(=O)Nc2ccc(Oc3ccncc3)cc2F)n(CC2CC2)n1 [Compound 310]
> 6.60
CC(C)(C)c1cccc(NC(=O)Nc2ccc(CCc3ccnc(NC(=O)C4CC4)c3)cc2F)c1 [Compound 376]
< 6.00
CC(=O)Nc1cc(CCc2ccc(NC(=O)Nc3cc(C(C)(C)C)nn3C(C)C)c(F)c2)ccn1 [Compound 371]
< 6.00
CC(C)C(=O)Nc1cc(CCc2cnc(NC(=O)Nc3cc(C(C)(C)C)nn3C)s2)ccn1 [Compound 349]
> 6.60
CC(C)(C)c1cc(NC(=O)Nc2ccc(Oc3ccnc(N)c3)cc2F)n(-c2cccc(F)c2)n1 [Compound 304]
> 6.60
CCOC(=O)Nc1cc(CCc2cnc(NC(=O)Nc3cc(C(C)(C)C)nn3C)s2)ccn1 [Compound 335]
> 6.60
CC(=O)Nc1cc(Oc2ccc(NC(=O)Nc3cc(C4CC4)ccc3F)c(F)c2)ccn1 [Compound 397]
> 6.60
Cc1ccc(-n2nc(C(C)(C)C)cc2NC(=O)Nc2ncc(CCc3ccnc(NC(=O)N4CCCC4)c3)s2)cc1 [Compound 337]
> 6.60
COCC(=O)Nc1cc(Oc2ccc(NC(=O)Nc3cc(C4(C)COC4)nn3-c3ccc(C)cc3)cc2)ccn1 [Compound 259]
> 6.60
CC(=O)Nc1cc(CCc2ccc(NC(=O)Nc3cc(C(C)(C)C)no3)c(F)c2)ccn1 [Compound 359]
< 6.00
COCCC(=O)Nc1cc(Oc2ccc(NC(=O)Nc3cc(C(C)(C)C)ccc3Cl)c(F)c2)ccn1 [Compound 427]
> 6.60
CC(C)(C)c1cc(NC(=O)Nc2ccc(Oc3ccncc3)cc2F)n(-c2ccc(F)cc2)n1 [Compound 303]
> 6.60
CCNC(=O)Nc1cc(CCc2cnc(NC(=O)Nc3cc(C(C)(C)C)nn3-c3ccc(C)cc3)s2)ccn1 [Compound 284]
> 6.60
COCCC(=O)Nc1cc(Oc2ccc(NC(=O)Nc3cc(C4CC4)ccc3F)c(F)c2)ccn1 [Compound 425]
> 6.60
CC(=O)Nc1cc(CCc2ccc(NC(=O)Nc3cc(C(C)(C)C)nn3CC3CC3)c(F)c2)ccn1 [Compound 370]
< 6.00
CC(=O)Nc1cc(CCc2cnc(NC(=O)Nc3cc(C4CC4)ccc3F)s2)ccn1 [Compound 398]
> 6.60
CC(C)(C)c1ccc(Cl)c(NC(=O)Nc2ccc(Oc3ccnc(NC(=O)CO)c3)cc2F)c1 [Compound 426]
> 6.60
COC(=O)Nc1cc(Oc2ccc(NC(=O)Nc3cc(C4(C)CSC4)nn3-c3ccc(C)cc3)cc2)ccn1 [Compound 262]
> 6.60
CC(=O)Nc1cc(CCc2cnc(NC(=O)Nc3cc(C(C)(C)C)on3)s2)ccn1 [Compound 366]
> 6.60
CC(C)(C)c1cc(NC(=O)Nc2ccc(CCc3ccnc(NC(=O)C4CC4)c3)cc2F)on1 [Compound 374]
< 6.00
CC(=O)Nc1cc(CCc2cnc(NC(=O)Nc3cc([Si](C)(C)C)ccc3F)s2)ccn1 [Compound 400]
> 6.60
CC(C)(C)c1cc(NC(=O)Nc2ncc(CCc3ccnc(NC(=O)C4CC4)c3)s2)no1 [Compound 369]
> 6.60
CC(=O)Nc1cc(CCc2cnc(NC(=O)Nc3cc(C(C)(C)C)nn3CC3CC3)s2)ccn1 [Compound 325]
> 6.60
O=C(CO)Nc1cc(Oc2ccc(NC(=O)Nc3cc(C4CC4)ccc3F)c(F)c2)ccn1 [Compound 424]
> 6.60
CC(=O)Nc1cc(Oc2ccc(NC(=O)Nc3cc(C(C)(C)C)on3)c(F)c2)ccn1 [Compound 394]
> 6.60
CC(C)(C)c1ccc(Cl)c(NC(=O)Nc2ncc(CCc3ccncc3)s2)c1 [Compound 388]
< 6.00
Cn1nc(C(C)(C)C)cc1NC(=O)Nc1ncc(CCc2ccnc(NC(=O)C3CC3)c2)s1 [Compound 345]
> 6.60
CC(=O)Nc1cc(CCc2ccc(NC(=O)Nc3cc(C(C)(C)C)nn3C)c(F)c2)ccn1 [Compound 361]
< 6.00
CC(C)(C)c1cc(NC(=O)Nc2ncc(CCc3ccnc(NC(=O)C4CCC4)c3)s2)n(CC2CC2)n1 [Compound 339]
> 6.60
Cn1nc(C(C)(C)C)cc1NC(=O)Nc1ncc(CCc2ccnc(NC(=O)C3CCC3)c2)s1 [Compound 353]
> 6.60
CC(C)(C)c1cc(NC(=O)Nc2ncc(CCc3ccnc(NC(=O)C4CC4)c3)s2)[nH]n1 [Compound 368]
> 6.60
